Data provenance: patent US20240279345A1

Target: T1, recombinant human α4β1 integrin (human, UniProt P13612 34-977; P05556 21-728)
T1 construct: bought recombinant heterodimer (R&D Systems cat. 5668-A4) coated on the plate; also called rh-α4β1
T1 sequence (P13612 34-977 limits assumed, form in doubt, chain 1 of 2): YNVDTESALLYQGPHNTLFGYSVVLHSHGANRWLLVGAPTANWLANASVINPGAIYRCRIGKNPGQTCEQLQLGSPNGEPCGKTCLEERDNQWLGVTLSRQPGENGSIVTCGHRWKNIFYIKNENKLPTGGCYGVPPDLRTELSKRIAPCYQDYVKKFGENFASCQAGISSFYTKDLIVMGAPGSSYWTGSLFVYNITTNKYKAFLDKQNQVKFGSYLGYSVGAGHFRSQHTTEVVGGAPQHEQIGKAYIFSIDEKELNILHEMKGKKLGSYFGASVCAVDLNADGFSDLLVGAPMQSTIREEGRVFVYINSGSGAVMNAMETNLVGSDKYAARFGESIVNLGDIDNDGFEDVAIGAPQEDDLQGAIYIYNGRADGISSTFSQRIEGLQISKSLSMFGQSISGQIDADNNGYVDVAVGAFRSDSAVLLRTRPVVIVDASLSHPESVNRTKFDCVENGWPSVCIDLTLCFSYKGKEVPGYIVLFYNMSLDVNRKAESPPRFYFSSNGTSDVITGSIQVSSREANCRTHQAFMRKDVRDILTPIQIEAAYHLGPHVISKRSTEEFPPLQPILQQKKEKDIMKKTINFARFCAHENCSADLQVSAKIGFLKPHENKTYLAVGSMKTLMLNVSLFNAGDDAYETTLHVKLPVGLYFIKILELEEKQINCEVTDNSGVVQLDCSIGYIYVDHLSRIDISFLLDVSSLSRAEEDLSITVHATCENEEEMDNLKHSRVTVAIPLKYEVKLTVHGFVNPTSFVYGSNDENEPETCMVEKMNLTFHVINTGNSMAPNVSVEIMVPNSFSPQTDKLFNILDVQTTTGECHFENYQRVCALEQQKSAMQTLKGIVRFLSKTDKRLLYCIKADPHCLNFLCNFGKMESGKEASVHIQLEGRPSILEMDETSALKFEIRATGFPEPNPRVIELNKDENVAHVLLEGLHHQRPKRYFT
T1 sequence (P05556 21-728 limits assumed, form in doubt, chain 2 of 2): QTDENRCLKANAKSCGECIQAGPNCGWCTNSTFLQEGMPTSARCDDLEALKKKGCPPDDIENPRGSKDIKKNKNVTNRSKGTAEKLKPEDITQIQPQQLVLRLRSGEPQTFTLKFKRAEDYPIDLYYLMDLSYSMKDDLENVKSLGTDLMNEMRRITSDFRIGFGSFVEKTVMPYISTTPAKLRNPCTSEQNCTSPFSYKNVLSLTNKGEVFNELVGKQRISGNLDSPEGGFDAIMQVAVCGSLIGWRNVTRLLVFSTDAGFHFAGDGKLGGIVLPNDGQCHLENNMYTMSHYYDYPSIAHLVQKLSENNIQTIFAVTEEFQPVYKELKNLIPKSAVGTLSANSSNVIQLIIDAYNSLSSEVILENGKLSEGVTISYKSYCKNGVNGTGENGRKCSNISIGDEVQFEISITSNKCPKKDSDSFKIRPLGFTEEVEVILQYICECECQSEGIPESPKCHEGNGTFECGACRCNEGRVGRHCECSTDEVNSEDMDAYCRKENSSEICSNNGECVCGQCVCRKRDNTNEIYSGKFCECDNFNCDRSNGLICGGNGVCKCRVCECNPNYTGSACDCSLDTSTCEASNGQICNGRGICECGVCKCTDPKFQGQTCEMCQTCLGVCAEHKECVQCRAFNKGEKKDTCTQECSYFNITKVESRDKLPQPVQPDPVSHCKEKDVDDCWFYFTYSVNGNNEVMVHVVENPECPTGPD
Assay: ELISA, coated integrin, supernatant 1:10
Protocol: Plates were washed 3 times with Wash Buffer (1× Tris Buffered Saline containing 0.05% Tween20), blocked with 2% BSA in 1×TBS (made from 10× Thermo Scientific Blocker BSA (10×) in TBS; Thermo Fisher Scientific, Waltham, MA, cat. no. 37520) for 2 hours at room temperature (RT) then incubated with hybridoma supernatants diluted 1:10 with Standard Diluent (2% BSA, 1×TBS, 0.05% Tween20). […] Absorbance 450 nm was measured.
Measured parameter: Absorbance 450 nm (A450)
Note: unit A450 is implicit; provide only the numeric part.

Below, each entry is followed by its recorded Absorbance 450 nm result.
Binder	Absorbance 450 nm, A450
A-15H11 (antibody, V domains shown, mouse hybridoma supernatant) VH: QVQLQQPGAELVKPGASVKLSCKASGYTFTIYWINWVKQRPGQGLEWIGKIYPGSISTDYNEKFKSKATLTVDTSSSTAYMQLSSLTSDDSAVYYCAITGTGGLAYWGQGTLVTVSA VL: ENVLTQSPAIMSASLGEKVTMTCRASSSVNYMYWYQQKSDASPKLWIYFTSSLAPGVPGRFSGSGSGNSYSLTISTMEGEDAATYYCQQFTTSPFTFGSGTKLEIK	0.081
C-14D12 (antibody, V domains shown, mouse hybridoma supernatant in this assay) VH: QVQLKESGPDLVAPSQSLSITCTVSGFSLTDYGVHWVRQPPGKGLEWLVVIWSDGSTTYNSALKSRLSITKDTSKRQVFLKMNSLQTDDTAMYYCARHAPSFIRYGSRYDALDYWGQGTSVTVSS VL: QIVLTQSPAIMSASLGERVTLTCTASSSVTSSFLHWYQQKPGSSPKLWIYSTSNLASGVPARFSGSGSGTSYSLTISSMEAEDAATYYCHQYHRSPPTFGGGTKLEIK	0.171

Need Absorbance 450 nm of C-8G11 (antibody, V domains shown, mouse hybridoma supernatant) VH: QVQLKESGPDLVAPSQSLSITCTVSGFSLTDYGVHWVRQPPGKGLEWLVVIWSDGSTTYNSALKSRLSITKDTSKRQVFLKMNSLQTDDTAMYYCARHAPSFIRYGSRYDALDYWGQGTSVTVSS VL: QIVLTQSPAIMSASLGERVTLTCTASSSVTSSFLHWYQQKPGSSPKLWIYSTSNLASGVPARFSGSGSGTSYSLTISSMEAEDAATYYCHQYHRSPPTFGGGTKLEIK , thanks.
0.165
